- targetUnderTest: T1, recombinant soluble human C4.4a (human, UniProt O95274 31-308)
- T1 construct: recombinant, soluble, purified protein; also called hC4.4a; full length C4.4a
- T1 sequence: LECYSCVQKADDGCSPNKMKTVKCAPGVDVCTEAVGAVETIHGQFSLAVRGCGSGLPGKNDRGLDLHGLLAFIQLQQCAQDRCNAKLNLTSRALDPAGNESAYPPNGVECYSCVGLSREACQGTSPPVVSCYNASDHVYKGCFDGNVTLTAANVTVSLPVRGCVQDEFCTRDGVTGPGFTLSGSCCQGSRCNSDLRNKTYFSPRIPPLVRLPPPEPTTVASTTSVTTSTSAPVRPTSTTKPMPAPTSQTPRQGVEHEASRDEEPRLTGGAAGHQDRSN
- assayMethodText: direct ELISA, Fab supernatant on coated human C4.4a, signal normalized to Fab quantity
measuredQuantity: normalized affinity signal (median)
Answer using only a numeral; do not append any unit.

wild-type Fab M31-B01 (Fab, V domains shown, Fab with 3×HA-tag and hexa-histidine tag at the C-terminus of the heavy chain, E. coli culture supernatant; also called M31-B01 (parental Fab)) VH: EVQLLESGGGLVQPGGSLRLSCAASGFTFSNAWMSWVRQAPGKGLEWVSYISSSGSTIYYADSVKGRFTISRDNSKNTLYLQMNSLRAEDTAVYYCAREGLWAFDYWGQGTLVTVTS VL: QSVLTQPPSASGTPGQRVTISCTGSSSNIGAGYVVHWYQQLPGTAPKLLIYDNNKRPSGVPDRFSGSKSGTSASLAISGLRSEDEADYYCAAWDDRLNGPVFGGGTKLTVLG = 1.23

Consider the record given below.
Measured normalized affinity signal (median) of M31-B01 Fab HC I57T (Fab, V domains shown, Fab with 3×HA-tag and hexa-histidine tag at the C-terminus of the heavy chain, culture supernatant) VH: EVQLLESGGGLVQPGGSLRLSCAASGFTFSNAWMSWVRQAPGKGLEWVSYISSSGSTTYYADSVKGRFTISRDNSKNTLYLQMNSLRAEDTAVYYCAREGLWAFDYWGQGTLVTVTS VL: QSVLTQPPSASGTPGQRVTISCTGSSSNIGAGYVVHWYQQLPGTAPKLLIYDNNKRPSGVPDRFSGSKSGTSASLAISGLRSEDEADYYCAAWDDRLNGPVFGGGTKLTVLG : 1.5
